Target: SFRP-1 (Homo sapiens, UniProt Q8N474)
Sequence (Q8N474 32-314): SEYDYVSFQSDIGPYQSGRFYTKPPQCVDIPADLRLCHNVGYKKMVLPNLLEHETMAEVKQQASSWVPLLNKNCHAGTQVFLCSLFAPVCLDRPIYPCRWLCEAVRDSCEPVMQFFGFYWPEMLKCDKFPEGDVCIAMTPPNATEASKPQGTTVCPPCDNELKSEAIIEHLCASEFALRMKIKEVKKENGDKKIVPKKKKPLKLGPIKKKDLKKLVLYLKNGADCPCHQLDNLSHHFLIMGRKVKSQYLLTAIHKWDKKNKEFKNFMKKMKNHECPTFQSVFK
Experiment: Cell-based assay for in vitro measurement of SFRP-1/SARP2 antagonist activity (U2OS cells co-transfected with 16x TCF-tk-Luciferase reporter, Wnt and hSFRP-1);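 note: U2OS cells co-transfected with a TCF-tk luciferase reporter, a Wnt vector, hSFRP-1 or empty vector and CMV-βgal, luciferase luminescence read in cell lysates alongside βgal activity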
Settings: U2OS, read-out: Fold Induction with SFRP-1, Conc 15 μM; with SFRP-1; fold induction over SFRP-1 control, single dose
measuredEndpoint: fold induction at 15 µM
// keep it numeric: no unit symbol after the value

[ask] Give the measured fold induction at 15 µM of C/C(=N\O)c1ccc(S(=O)(=O)c2ccc(C)c(S(=O)(=O)NC3CCOCC3)c2)cc1 [Example 402] .
[reply] 2.5

[ask] Recorded fold induction at 15 µM of CC(C)c1ccc(S(=O)(=O)c2ccccc2)cc1S(=O)(=O)NCCc1ccccc1 [Example 295] , please.
[reply] 2.7

[ask] Data request, read-out fold induction at 15 µM, for COc1ccc(S(=O)(=O)c2ccccc2)cc1S(=O)(=O)NCCc1ccccc1F [Example 156]
[reply] 1.4

[ask] Quick one: fold induction at 15 µM of Cc1ccc(S(=O)(=O)c2ccccc2)cc1S(=O)(=O)NC1CCN(S(=O)(=O)c2cn(C)cn2)CC1 [Example 481] ?
[reply] 1.8

[ask] Can you share its fold induction at 15 µM? I mean this compound: CNc1ccc(S(=O)(=O)c2ccc(C(C)C)c(S(=O)(=O)NCCC3CCOCC3)c2)cc1 [Example 359]
[reply] 2.7

[ask] I'd like to know its fold induction at 15 µM. The compound in question is Cc1cc(C)c(S(=O)(=O)c2ccc(F)cc2)cc1S(=O)(=O)NCCn1ccnc1 [Example 329]
[reply] 2.9

[ask] Look up fold induction at 15 µM: O=S(=O)(NC1CCOCC1)c1cc(S(=O)(=O)c2ccccc2)ccc1Cl [Example 361]
[reply] 2.3

[ask] Fill in: fold induction at 15 µM of Cc1ccc(S(=O)(=O)c2ccccc2)cc1S(=O)(=O)NCCC1CCOCC1 [Example 299] is ___
[reply] 3.1

[ask] Can you share its fold induction at 15 µM? I mean this compound: Cc1ccc(S(=O)(=O)c2ccccc2)cc1S(=O)(=O)NC1CCCCC1 [Example 400]
[reply] 1.8

[ask] What value of measured fold induction at 15 µM is listed for Cc1ccc(S(=O)(=O)c2ccc3[nH]ccc3c2)cc1S(=O)(=O)NCCc1ccccn1 [Example 427] ?
[reply] 2

[ask] Query (compound): Cc1ccc(S(=O)(=O)c2ccc(F)cc2)cc1S(=O)(=O)NCCCN1CCCC1 [Example 178] ; field requested: fold induction at 15 µM
[reply] 2.8

[ask] Which fold induction at 15 µM is listed for Cc1ccc(S(=O)(=O)c2cc3c(c(S(=O)(=O)NCCc4ccccc4F)c2)CCCC3)cc1 [Example 441] ?
[reply] 1.8

[ask] Entry Cc1ccc(S(=O)(=O)c2ccc(-c3ccccc3)cc2)cc1S(=O)(=O)NCCc1ccccn1 [Example 433] : reported fold induction at 15 µM = ?
[reply] 2.5

[ask] GET /values?readout=fold induction at 15 µM&item= CCc1ccc(S(=O)(=O)c2ccccc2)cc1S(=O)(=O)NCCc1c[nH]cn1 [Example 225]
[reply] 3.1

[ask] What value of fold induction at 15 µM has been reported for the following compound? CCCNS(=O)(=O)c1cc(S(=O)(=O)c2ccccc2)ccc1C [Example 394]
[reply] 1.5

[ask] Quick check: fold induction at 15 µM of CCc1ccc(S(=O)(=O)c2ccccc2)cc1S(=O)(=O)N(C)CCc1ccccc1 [Example 284] ?
[reply] 1.1

[ask] Fill in the blank: the reported fold induction at 15 µM of Cc1ccc(S(=O)(=O)c2ccc(Cl)cc2)cc1S(=O)(=O)NCCc1ccccn1 [Example 291] is ____.
[reply] 1.7

[ask] Data request, read-out fold induction at 15 µM, for CCc1ccc(S(=O)(=O)c2ccccc2)cc1S(=O)(=O)NCCN1CCOCC1 [Example 226]
[reply] 3

[ask] Which fold induction at 15 µM is reported for this compound? Cc1ccc(S(=O)(=O)c2ccccc2)cc1S(=O)(=O)NCCc1ccccn1 [Example 205]
[reply] 2.3

[ask] Any idea what its fold induction at 15 µM is? The compound is Cc1ccc(S(=O)(=O)c2ccc(F)cc2)cc1S(=O)(=O)NCC1CCOCC1 [Example 383]
[reply] 2.1

[ask] Quick check: fold induction at 15 µM of CCc1ccc(S(=O)(=O)c2ccc(F)cc2)cc1S(=O)(=O)NCC(O)c1ccccc1 (stereo not drawn) [Example 388] ?
[reply] 2.2

[ask] Item under review: Cc1ccc(S(=O)(=O)c2ccc(F)cc2)cc1S(=O)(=O)NCCCN1CCN(C)CC1 [Example 179] . Reported fold induction at 15 µM?
[reply] 2

[ask] Given the entry CCc1ccc(S(=O)(=O)c2ccccc2)cc1S(=O)(=O)NCCCN(CC)CC [Example 230] , report its measured fold induction at 15 µM.
[reply] 3.2

[ask] State the recorded fold induction at 15 µM for this entry: CCN(CC)CCNS(=O)(=O)c1cc(S(=O)(=O)c2ccccc2)ccc1C [Example 213]
[reply] 1.8

[ask] For CC(C)c1ccc(S(=O)(=O)c2ccc(C(C)(C)C)cc2)cc1S(=O)(=O)NCCc1ccccn1 [Example 435] , what is its reported fold induction at 15 µM?
[reply] 1.7

[ask] # query: fold induction at 15 µM of entry CCc1ccc(S(=O)(=O)c2ccc(F)cc2)cc1S(=O)(=O)NC(C)C(O)c1ccccc1 (stereo not drawn) [Example 392]
[reply] 2.8

[ask] Param item = COc1ccc(S(=O)(=O)c2ccccc2)cc1S(=O)(=O)NCCCN1CCCC1 [Example 243] ; retrieve measured fold induction at 15 µM.
[reply] 2.4

[ask] Which fold induction at 15 µM value belongs to Cc1c(S(=O)(=O)NCCc2ccccc2)cccc1S(=O)(=O)c1ccccc1 [Example 302] ?
[reply] 1.2

[ask] # lookup: fold induction at 15 µM of Cc1ccc(C(=O)N2CCC(NS(=O)(=O)c3cc(S(=O)(=O)c4ccccc4)ccc3C)CC2)cc1 [Example 468]
[reply] 2

[ask] Quick one: fold induction at 15 µM of Cc1ccc(S(=O)(=O)c2ccccc2)cc1S(=O)(=O)NCCc1ccncc1 [Example 208] ?
[reply] 2.6

[ask] Can you share its fold induction at 15 µM? I mean this compound: CCc1ccc(S(=O)(=O)c2ccccc2)cc1S(=O)(=O)NCCc1ccccc1F [Example 147]
[reply] 3.2

[ask] # fold induction at 15 µM lookup, item Cc1ccc(S(=O)(=O)c2ccccc2)cc1S(=O)(=O)NCCCN1CCN(C)CC1 [Example 221]
[reply] 3

[ask] What value of fold induction at 15 µM has been recorded for this entry: Cc1ccc(S(=O)(=O)c2ccccc2)cc1S(=O)(=O)NC1CCN(C(=O)Cc2ccccc2)CC1 [Example 470]
[reply] 1.6
